Quick reference for zone of inhibition at 60 µg/disc among some molecules
System: Staphylococcus epidermidis
Assay: Antimicrobial activity against Staphylococcus epidermidis ATCC 14990 assessed as zone of inhibition at 60 ug incubated overnight by agar well diffusion assay
Type: functional
Details: read-out: DIZ
endpoint.name: zone of inhibition at 60 µg/disc (mm)

[[record]]
structure_smiles = "O=c1cc(CCCCCCCCO)[nH]c2ccccc12"
assay_target = "Staphylococcus epidermidis"
endpoint_name = "zone of inhibition at 60 µg/disc"
value = 0

[[record]]
structure_smiles = "CC(=O)OCCCCCCCc1cc(=O)c2ccccc2[nH]1"
assay_target = "Staphylococcus epidermidis"
endpoint_name = "zone of inhibition at 60 µg/disc"
value = 7

[[record]]
structure_smiles = "CC(=O)OCCCCCCCCCc1cc(=O)c2ccccc2[nH]1"
assay_target = "Staphylococcus epidermidis"
endpoint_name = "zone of inhibition at 60 µg/disc"
value = 11

[[record]]
structure_smiles = "CC(=O)OCCCCCCCCc1cc(=O)c2ccccc2[nH]1"
assay_target = "Staphylococcus epidermidis"
endpoint_name = "zone of inhibition at 60 µg/disc"
value = 9

[[record]]
structure_smiles = "CCCCCCCCc1cc(=O)c2ccccc2[nH]1"
assay_target = "Staphylococcus epidermidis"
endpoint_name = "zone of inhibition at 60 µg/disc"
value = 12

[[record]]
structure_smiles = "CCCCCCCc1cc(=O)c2ccccc2[nH]1"
assay_target = "Staphylococcus epidermidis"
endpoint_name = "zone of inhibition at 60 µg/disc"
value = 13

[[record]]
structure_smiles = "O=c1cc(CCCCCCCCCCO)[nH]c2ccccc12"
assay_target = "Staphylococcus epidermidis"
endpoint_name = "zone of inhibition at 60 µg/disc"
value = 0

